The following compounds are listed with their measured inhibition values.
system name: cAMP-dependent protein kinase catalytic subunit alpha (Homo sapiens);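 further: mean percent inhibition of PKA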
protocol conditions: at 1 µM
Unit % implied. Number only.

The cases that follow already have their inhibition on record.
COC(=O)Nc1nc2cc(Oc3ccc(NC(=O)Nc4ccccc4)cc3)ccc2[nH]1 | 2.15
COc1cc(Nc2ncc(-c3ccccc3)o2)cc(OC)c1 | 1.67
CCCNc1cccc(-n2ncc3c(N/N=C/c4ccncc4)ncnc32)c1 | 3.62
Fc1cccc(COc2ccc(Nc3ncncc3C#Cc3ccccc3)cc2Cl)c1 | 2.57
CC1=C(C(=O)Nc2ccc3[nH]nc(C)c3c2)C(c2ccc(C(F)(F)F)cc2)CC(=O)N1 (stereo not given) | 26.6
CC(C)c1ccc(-c2cc(-c3c[nH]nc3-c3ccccn3)ccn2)cc1 | 2.36
N#Cc1ccc2c(-c3ccnc(NC4CC4)n3)c(-c3ccc(F)cc3)nn2c1 | 0.4
c1ccc(-c2n[nH]cc2-c2ccnc(-c3ccc(OCCn4ccnc4)cc3)c2)nc1 | 4.32
CS(=O)(=O)CCNCc1ccc(-c2ccc3ncnc(Nc4ccc(OCc5ccccc5)cc4)c3c2)o1 | 2.45
COC(=O)Nc1nc2ccc(Oc3ccc(NC(=O)Nc4cc(C(F)(F)F)ccc4F)cc3)cc2s1 | 0.64

Lab book: inhibition of COc1cccc(-n2ncc3c(N/N=C/c4ccc(C(=O)NCCN(C)C)cc4)ncnc32)c1 noted as 11.4

Lab book: inhibition of Cc1cc(O)cc(C)c1/C=C/c1cncc(C(N)=O)c1 noted as 2.91

###

system name: Serine/threonine-protein kinase PAK 3 (Homo sapiens)
protocol conditions: at 1 µM
measured quantity: inhibition (%)
Unit % implied. Number only.

O=C1Nc2ccccc2/C1=C1\CCc2cc(O)ccc21 | 6.44
O=C(O[C@H]1CN[C@H](C#Cc2cc3ncnc(Nc4ccc(OCc5cccc(F)c5)c(Cl)c4)c3s2)C1)N1CCOCC1 | 6.74

We now examine a further molecule.
Serine/threonine-protein kinase PAK 3 (Homo sapiens) data for CCOc1ccc2c(-c3ccnc(Nc4cc(OC)cc(C(F)(F)F)c4)n3)cnn2n1 ; its inhibition: -0.09

###

system name: Ephrin type-A receptor 4 (Homo sapiens) (UniProt P54764)
Sequence (P54764 whole entry): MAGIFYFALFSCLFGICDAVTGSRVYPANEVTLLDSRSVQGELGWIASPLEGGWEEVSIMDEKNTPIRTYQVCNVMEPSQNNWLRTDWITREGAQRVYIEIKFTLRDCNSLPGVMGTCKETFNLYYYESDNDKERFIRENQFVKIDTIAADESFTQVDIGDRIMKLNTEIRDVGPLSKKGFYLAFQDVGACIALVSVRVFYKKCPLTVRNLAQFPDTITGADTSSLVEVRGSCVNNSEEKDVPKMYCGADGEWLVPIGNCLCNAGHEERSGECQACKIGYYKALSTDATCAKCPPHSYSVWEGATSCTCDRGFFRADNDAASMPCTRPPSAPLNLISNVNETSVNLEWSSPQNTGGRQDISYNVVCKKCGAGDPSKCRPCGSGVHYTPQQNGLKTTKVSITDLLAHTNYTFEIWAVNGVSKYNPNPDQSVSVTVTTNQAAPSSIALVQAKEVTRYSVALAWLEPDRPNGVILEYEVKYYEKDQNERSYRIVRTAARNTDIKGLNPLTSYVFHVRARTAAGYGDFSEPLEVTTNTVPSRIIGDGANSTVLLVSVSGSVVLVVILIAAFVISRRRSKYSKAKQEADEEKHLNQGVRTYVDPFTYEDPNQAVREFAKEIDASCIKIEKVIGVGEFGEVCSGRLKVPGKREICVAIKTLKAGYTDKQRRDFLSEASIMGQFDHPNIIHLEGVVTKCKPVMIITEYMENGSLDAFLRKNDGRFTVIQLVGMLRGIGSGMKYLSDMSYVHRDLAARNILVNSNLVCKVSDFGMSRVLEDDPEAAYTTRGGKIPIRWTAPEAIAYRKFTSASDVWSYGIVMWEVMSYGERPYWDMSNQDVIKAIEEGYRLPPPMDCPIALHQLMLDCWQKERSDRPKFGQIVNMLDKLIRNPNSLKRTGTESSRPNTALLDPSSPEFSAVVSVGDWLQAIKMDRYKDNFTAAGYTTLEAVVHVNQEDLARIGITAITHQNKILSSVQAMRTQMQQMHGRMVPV
protocol conditions: at 1 µM
Description: GSK_PKIS: EPHA4 mean inhibition at 1 uM [Nanosyn]
Please use T whenever inhibition is not below 7%, and F whenever it is.

COc1cccc(Nc2nccc(-c3cnn4ncccc34)n2)c1 | T
CC1=C(C(=O)Nc2ccc3[nH]ncc3c2)C(c2ccc(F)cc2)N=C(c2ccc(C(F)(F)F)nc2)N1 (stereo not given) | F

Kindly determine if inhibition recorded for O=C(O[C@H]1CN[C@H](C#Cc2cc3ncnc(Nc4ccc5c(ccn5Cc5cc(F)ccc5F)c4)c3s2)C1)N1CCOCC1 is above or exactly 7%.
F

Kindly determine if inhibition recorded for CN(C)CCNC(=O)Nc1ccc(N(C)c2ccnc(Nc3ccc(CS(C)(=O)=O)cc3)n2)cc1 is above or exactly 7%.
F

Kindly determine if inhibition recorded for NS(=O)(=O)c1ccc(N/N=C2\C(=O)Nc3ccc(C(=O)NCc4ccncc4)cc32)cc1 is above or exactly 7%.
T

###

system name: Serine/threonine-protein kinase PAK 3 (Homo sapiens) (UniProt O75914);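 further: reported percentage is a mean inhibition value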
Sequence (O75914 whole entry, looked up): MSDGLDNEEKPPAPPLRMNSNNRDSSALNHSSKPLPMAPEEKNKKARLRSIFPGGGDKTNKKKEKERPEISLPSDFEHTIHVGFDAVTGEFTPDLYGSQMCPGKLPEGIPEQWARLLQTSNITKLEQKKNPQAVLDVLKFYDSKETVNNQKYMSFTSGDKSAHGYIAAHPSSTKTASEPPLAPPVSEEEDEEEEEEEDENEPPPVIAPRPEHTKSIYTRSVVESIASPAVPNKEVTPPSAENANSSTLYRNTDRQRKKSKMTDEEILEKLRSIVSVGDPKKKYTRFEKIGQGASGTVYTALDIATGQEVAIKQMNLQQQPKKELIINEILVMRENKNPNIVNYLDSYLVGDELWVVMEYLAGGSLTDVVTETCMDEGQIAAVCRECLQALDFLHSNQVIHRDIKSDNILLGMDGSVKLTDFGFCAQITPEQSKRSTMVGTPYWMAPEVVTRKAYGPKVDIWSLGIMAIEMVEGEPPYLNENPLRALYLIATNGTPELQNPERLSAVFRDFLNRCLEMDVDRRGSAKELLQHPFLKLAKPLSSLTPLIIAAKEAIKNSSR
protocol conditions: at 1 µM
measured quantity: inhibition (%)
Unit % implied. Number only.

FC(F)(F)CNc1nccc(-c2cnn3ncccc23)n1 | 3.14
Cc1cc(O)cc(C)c1/C=C/c1cncc(C(N)=O)c1 | 2.79
OCCCNc1nccc(-c2c(-c3ccc(F)cc3)nn3cc(C(F)(F)F)ccc23)n1 | 3.68
COc1cccc(-n2ncc3c(N/N=C/c4ccc(C(=O)NCCN(C)C)cc4)ncnc32)c1 | 3.69
CNC(=O)c1ncccc1Nc1nc(Nc2cc3c(cc2OC)CCCN3C(=O)CN(C)C)nc2[nH]ccc12 | 5.27

Lab book: inhibition of c1ccc(-c2n[nH]cc2-c2ccnc(-c3ccc(OCCn4ccnc4)cc3)c2)nc1 noted as -2.41

Lab book: inhibition of CN1CCC(n2cnc(-c3ccc(F)cc3)c2-c2ccnc(NCCO)n2)CC1 noted as 3.76

Lab book: inhibition of CNC(=O)c1sc(-n2cnc3cc(OC)c(OC)cc32)cc1OCc1ccccc1C(F)(F)F noted as 2.98

Lab book: inhibition of COc1cccc(Nc2nccc(-c3cnn4ncccc34)n2)c1 noted as 1.63

Lab book: inhibition of Fc1ccc(Nc2nccc(-c3c(-c4ccc(C(F)(F)F)cc4)nn4ncccc34)n2)cc1F noted as 3.25

Lab book: inhibition of NS(=O)(=O)c1cccc(N/C=C2\C(=O)Nc3ccccc32)c1 noted as 4.94

Lab book: inhibition of CCn1c(-c2nonc2N)nc2cncc(C(=O)NCCNC)c21 noted as 5.12

###

Test system: Receptor-type tyrosine-protein kinase FLT3 (Homo sapiens), P36888 [D835Y]
Sequence (whole entry): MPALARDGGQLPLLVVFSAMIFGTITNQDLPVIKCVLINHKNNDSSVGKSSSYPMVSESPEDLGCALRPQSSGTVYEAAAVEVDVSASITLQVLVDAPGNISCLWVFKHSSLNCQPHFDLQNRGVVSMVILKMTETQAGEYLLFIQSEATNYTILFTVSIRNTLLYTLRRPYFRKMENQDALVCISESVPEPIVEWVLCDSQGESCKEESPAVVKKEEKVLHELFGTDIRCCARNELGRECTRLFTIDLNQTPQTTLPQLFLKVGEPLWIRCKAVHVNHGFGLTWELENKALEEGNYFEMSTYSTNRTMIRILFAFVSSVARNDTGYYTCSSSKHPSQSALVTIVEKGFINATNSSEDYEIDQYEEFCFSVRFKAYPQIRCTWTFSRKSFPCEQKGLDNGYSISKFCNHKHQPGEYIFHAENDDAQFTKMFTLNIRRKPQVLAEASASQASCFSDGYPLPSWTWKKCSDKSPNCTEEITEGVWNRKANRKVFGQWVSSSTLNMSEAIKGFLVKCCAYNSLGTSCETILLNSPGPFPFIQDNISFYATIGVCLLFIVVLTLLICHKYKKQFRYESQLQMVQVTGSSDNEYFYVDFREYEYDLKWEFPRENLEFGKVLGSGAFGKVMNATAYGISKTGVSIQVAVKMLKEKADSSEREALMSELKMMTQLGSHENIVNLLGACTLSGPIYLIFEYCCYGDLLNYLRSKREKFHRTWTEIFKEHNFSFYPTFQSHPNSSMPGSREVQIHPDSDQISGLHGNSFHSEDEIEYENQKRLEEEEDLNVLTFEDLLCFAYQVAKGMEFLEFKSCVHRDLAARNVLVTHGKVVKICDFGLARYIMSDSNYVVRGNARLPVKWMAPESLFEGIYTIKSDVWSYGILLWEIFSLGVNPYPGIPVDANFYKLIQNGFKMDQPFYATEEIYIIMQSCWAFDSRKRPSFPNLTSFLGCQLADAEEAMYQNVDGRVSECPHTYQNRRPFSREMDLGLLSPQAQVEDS
protocol conditions: at 0.1 µM
measured quantity: inhibition (%)
Unit % implied. Number only.

CCN1CCC(C(=O)Nc2n[nH]c3nnc(-c4cccc(F)c4F)cc23)CC1 | -1.16
COc1cccc(Nc2nccc(-c3cnn4ncccc34)n2)c1 | 16.7
COC(=O)Nc1nc2cc(Oc3ccc(NC(=O)Nc4ccccc4)cc3)ccc2[nH]1 | -4.53
COc1cc(Nc2ncc(-c3ccccc3)o2)cc(OC)c1 | 5.63
CC1=C(C(=O)Nc2ccc3[nH]nc(C)c3c2)C(c2ccc(C(F)(F)F)cc2)CC(=O)N1 (stereo not drawn) | 0.37
CCCNc1cccc(-n2ncc3c(N/N=C/c4ccncc4)ncnc32)c1 | 7.74

Receptor-type tyrosine-protein kinase FLT3 (Homo sapiens), P36888 [D835Y] data for CCS(=O)(=O)c1ccc(OC)c(Nc2ncc(-c3cccc(C(C)=O)c3)o2)c1 ; its inhibition: 55.7

Receptor-type tyrosine-protein kinase FLT3 (Homo sapiens), P36888 [D835Y] data for COc1ccc2ncn(-c3cc(O[C@H](C)c4ccccc4C(F)(F)F)c(C(N)=O)s3)c2c1 ; its inhibition: -1.49

###

The following molecules are listed with their measured inhibition values.
system name: Calcium/calmodulin-dependent protein kinase type IV (Homo sapiens) (UniProt Q16566);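 further: each value is a mean inhibition of CAMK4, part of the GSK PKIS kinase screening panel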
Sequence (Q16566 whole entry): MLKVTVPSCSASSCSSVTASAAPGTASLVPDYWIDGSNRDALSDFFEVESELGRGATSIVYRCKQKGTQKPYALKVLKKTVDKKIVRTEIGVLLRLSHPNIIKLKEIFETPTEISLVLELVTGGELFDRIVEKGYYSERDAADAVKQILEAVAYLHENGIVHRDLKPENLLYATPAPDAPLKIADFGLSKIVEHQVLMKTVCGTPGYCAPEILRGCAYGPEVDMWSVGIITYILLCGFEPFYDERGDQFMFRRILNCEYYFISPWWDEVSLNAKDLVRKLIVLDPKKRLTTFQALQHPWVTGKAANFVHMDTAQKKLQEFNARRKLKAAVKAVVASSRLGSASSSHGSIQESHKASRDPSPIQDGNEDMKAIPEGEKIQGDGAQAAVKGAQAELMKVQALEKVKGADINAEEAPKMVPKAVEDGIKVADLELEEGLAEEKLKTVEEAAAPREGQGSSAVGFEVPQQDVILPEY
protocol conditions: at 0.1 µM
Unit % implied. Number only.

COc1cc(N2CCN(C(C)C)CC2)ccc1Nc1nc(Nc2cccc3ncccc23)c2cc[nH]c2n1 | 1.22
Cc1cc(O)cc(C)c1/C=C/c1cncc(C(N)=O)c1 | 0.89
N#Cc1cccc(Nc2ncc(-c3ccccc3)o2)c1 | -2.03
NS(=O)(=O)c1ccc(N/N=C2\C(=O)Nc3cccc(CCc4ccncc4)c32)cc1 | 1.59
O=C(O[C@H]1CN[C@H](C#Cc2cc3ncnc(Nc4ccc(OCc5cccc(F)c5)c(Cl)c4)c3s2)C1)N1CCOCC1 | -1.14

Lab book: inhibition of COC(=O)Nc1nc2cc(Oc3ccc(NC(=O)Nc4ccccc4)cc3)ccc2[nH]1 noted as -1.32

Lab book: inhibition of CC1=C(C(=O)Nc2ccc3[nH]ncc3c2)C(c2ccc(F)cc2)N=C(c2ccc(C(F)(F)F)nc2)N1 (stereo unspecified) noted as 0.82

Lab book: inhibition of CCOc1ccc2c(-c3ccnc(Nc4cc(OC)cc(C(F)(F)F)c4)n3)cnn2n1 noted as 1.18

From: ChEMBL document CHEMBL1961873
